Target: feline FcRn (FCN-F82W3, Acrobiosystems) (feline)
Assay: SPR Carterra, IgG coupled, pH 6.0
test-readout: kon (M⁻¹ s⁻¹)
Answer format: numeric, M⁻¹ s⁻¹ implied, no suffix.

binder anti-NGF feline IgG1a with wild-type Fc (antibody, part only; not given: anti-NGF variable domains, not shown: another chain or arm of the molecule; small tags and cut ends) Fc: PPEMLGGPSIFIFPPKPKDTLSISRTPEVTCLVVDLGPDDSDVQITWFVDNTQVYTAKTSPREEQFNSTYRVVSVLPILHQDWLKGKEFKCKVNSKSLPSPIERTISKAKGQPHEPQVYVLPPAQEELSRNKVSVTCLIKSFHPPDIAVEWEITGQPEPENNYRTTPPQLDSDGTYFVYSKLSVDRSHWQRGNTYTCSVSHEALHSHHTQKSLTQSPGK , kon observed: 472000

Kindly note the recorded kon for anti-NGF feline IgG1a, Fc variant S252Y, Q311K (antibody, part only; not given: anti-NGF variable domains, light chain, not shown: another chain or arm of the molecule; small tags and cut ends) Fc: PPEMLGGPSIFIFPPKPKDTLYISRTPEVTCLVVDLGPDDSDVQITWFVDNTQVYTAKTSPREEQFNSTYRVVSVLPILHKDWLKGKEFKCKVNSKSLPSPIERTISKAKGQPHEPQVYVLPPAQEELSRNKVSVTCLIKSFHPPDIAVEWEITGQPEPENNYRTTPPQLDSDGTYFVYSKLSVDRSHWQRGNTYTCSVSHEALHSHHTQKSLTQSPGK , which is 1.39e+06

According to the records, this binder anti-NGF feline IgG1a, Fc variant R334D, S428R (antibody, part only; not given: anti-NGF variable domains, light chain, not shown: another chain or arm of the molecule; small tags and cut ends) Fc: PPEMLGGPSIFIFPPKPKDTLSISRTPEVTCLVVDLGPDDSDVQITWFVDNTQVYTAKTSPREEQFNSTYRVVSVLPILHQDWLKGKEFKCKVNSKSLPSPIEDTISKAKGQPHEPQVYVLPPAQEELSRNKVSVTCLIKSFHPPDIAVEWEITGQPEPENNYRTTPPQLDSDGTYFVYSKLSVDRSHWQRGNTYTCSVRHEALHSHHTQKSLTQSPGK displays kon of 603000

binder anti-NGF feline IgG1a, Fc variant S434Y, E293D (antibody, part only; not given: anti-NGF variable domains, light chain, not shown: another chain or arm of the molecule; small tags and cut ends) Fc: PPEMLGGPSIFIFPPKPKDTLSISRTPEVTCLVVDLGPDDSDVQITWFVDNTQVYTAKTSPRDEQFNSTYRVVSVLPILHQDWLKGKEFKCKVNSKSLPSPIERTISKAKGQPHEPQVYVLPPAQEELSRNKVSVTCLIKSFHPPDIAVEWEITGQPEPENNYRTTPPQLDSDGTYFVYSKLSVDRSHWQRGNTYTCSVSHEALHYHHTQKSLTQSPGK , kon observed: 1.57e+06

More entries:
In plain terms, anti-NGF feline IgG1a, Fc variant S434Y, T286E (antibody, part only; not given: anti-NGF variable domains, light chain, not shown: another chain or arm of the molecule; small tags and cut ends) Fc: PPEMLGGPSIFIFPPKPKDTLSISRTPEVTCLVVDLGPDDSDVQITWFVDNTQVYEAKTSPREEQFNSTYRVVSVLPILHQDWLKGKEFKCKVNSKSLPSPIERTISKAKGQPHEPQVYVLPPAQEELSRNKVSVTCLIKSFHPPDIAVEWEITGQPEPENNYRTTPPQLDSDGTYFVYSKLSVDRSHWQRGNTYTCSVSHEALHYHHTQKSLTQSPGK has a documented kon of 965000

Source: patent US20250304650A1
